system: normal human lung fibroblasts; experiment: Ribosomal profiling: translational efficiency in TGFβ-treated fibroblasts; type: cell-based; settings: ENSG00000049192; TGFβ-treated fibroblasts
assay-readout: renormalizing the translational profile of ADAMTS6

1. Cc1cc(C2CCCCC2)n(O)c(=O)c1.NCCO [CPX, ciclopirox oloamine] ... − (− = <0.9)
2. COC(=O)[C@H]1[C@@H](O)[C@@]2(O)c3c(OC)cc(O[C@@H]4O[C@@H]([C@H](O)CO)CO[C@H]4OC)cc3O[C@@]2(c2ccc(OC)cc2)[C@@H]1c1ccccc1 [Silvestrol] ... − (− = <0.9)
3. CC(C)n1nc(-c2cc3cc(O)ccc3[nH]2)c2c(N)ncnc21 [PP242] ... − (− = <0.9)
4. Cc1ccc(=O)n(-c2ccccc2)c1 [pirfenidone, 5-methyl-1-phenylpyridin-2-one] ... − (− = <0.9)

*Q* Entry under review: CC(C=CC(=O)NO)=CC(C)C(=O)c1ccc(N(C)C)cc1 (centres unmarked) [TSA] . Reported renormalizing the translational profile of ADAMTS6?
*A* − (− = <0.9)
